- assayedTarget: T1, human Trop2 on cells (human, UniProt P09758 27-323)
- T1 construct: whole, on cells; also called hTrop2; 293T-human Trop2 cells
- T1 sequence (looked up): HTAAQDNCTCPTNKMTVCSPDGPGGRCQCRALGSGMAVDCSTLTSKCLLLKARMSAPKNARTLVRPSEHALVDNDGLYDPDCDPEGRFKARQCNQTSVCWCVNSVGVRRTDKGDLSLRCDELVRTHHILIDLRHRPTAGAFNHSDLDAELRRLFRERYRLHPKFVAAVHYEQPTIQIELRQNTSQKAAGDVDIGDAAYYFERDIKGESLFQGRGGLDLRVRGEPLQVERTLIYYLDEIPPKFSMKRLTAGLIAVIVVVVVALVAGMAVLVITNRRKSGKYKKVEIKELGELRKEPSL
- procedureSummary: flow cytometry on 293T-human Trop2 cells
measuredParameter: Maximum (MFI)
Provide the reading as a plain figure in MFI.

Consider the reported Maximum (MFI) for these binders:
- binder: "PR001152 (antibody, human IgG1, kappa, V domains shown, fully human IgG1/kappa; also called antibody No. (15)) VH: QVQLVESGGAVVQPGRSLRLSCAASGFTFSHYGMHWVRQAPGKGLEWVAVIWYDGIKSYYVESVKGRFTISRDNSKNTLYLQMDRLRAEDTAVYYCARDGGFGESNYYGLDVWGQGTTVTVSS VL: DIQLTQSPSFLSASVGDRVTITCRASQGINSYLGWYQRKPGKAPKLLIYIASTLQSGVPSRFSGSGSGTEFTLTISSLQPEDFATYYCQQLNSYPYTFGQGTKLEIKR"
  Maximum (MFI): 7180
- binder: "PR001166 (antibody, human IgG1, kappa, V domains shown, fully human IgG1/kappa; also called antibody No. (27)) VH: QVQLQESGPGLVKPSETLSLTCAVSGYSISSGYFWAWIRQPPGKGLEWIGSIYHSGRTHYNPSLKSRVIISLDTSKNQFSLKLRSVTAADSAVYYCAREGYASGSYYWGQGTLVTVSS VL: EIVMTQSPATLSVSPGERATLSCRSSQSVNNYLAWFQQKPGQAPRLLIYDSSTRATGIPARFSGSGSGTEFTLTISSLQSEDFAFYFCQQYENWPLTFGGGTKVEIKR"
  Maximum (MFI): 7050
- binder: "PR001158 (antibody, human IgG1, kappa, V domains shown, fully human IgG1/kappa; also called antibody No. (20)) VH: QVQLVESGGGVVQPGRSLRLSCVASGFTFSHYGMHWVRQAPGKGLEWVAVIWYDGIKKYYVESVKGRFTISRDNSKNTLNLQMNRLRAEDTAVYYCARDGGFGESNYYGLDVWGQGTTVTVSS VL: DIQLTQSPSFLSASVGDRVTITCRASQGISSYLGWYQQKPGKAPKLLIYIASTLQSGVPSRFSGSGSGTEFTLTISSLQPEDFATYYCQQLNSYPYTFGQGTKLEIKR"
  Maximum (MFI): 6950
- binder: "PR001128 (antibody, human IgG1, kappa, V domains shown, fully human IgG1/kappa; also called antibody No. (1)) VH: QVQLQESGPGLVKPSGTLSLTCAVSGGSISSSNWWSWVRQPPGKGLEWIGEIFHSGTTYYNPSLKSRVTILVDKSKNQFSLKLSSVTAADTAVYYCARDNTKSWDHFDHWGQGTLVTVSS VL: EIVLTQSPATLSLSPGERATLSCRASQSVGSYLAWYQQKPGQAPSLLIYDASNRATGIPARFSGSGSGTDFTLTISSLEPEDFAVYYCQQRTNWYTFGQGTKLEIKR"
  Maximum (MFI): 6850

# next binder below
Would you kindly share the measured Maximum (MFI) for PR001170 (antibody, human IgG1, kappa, V domains shown, fully human IgG1/kappa; also called antibody No. (29)) VH: QVQLQESGPGLVKPSETLSLTCAVSGYSINSGYFWAWIRQPPGMGLEWIGSIYHSGRTHYNPSLKSRVIISLDTSKNQFSLKLRSVTAADSAVYYCAREGYASGSYYWGQGTLVTVSS VL: EIVMTQSPATLSVSPGERATLSCRSSQSVNSYLAWFQQKPGQAPRLLIYDSSTRATGIPARFSGSGSGTEFTLTISSLQSEDFAFYFCQQYENWPLTFGGGTKVEIKR ? 6960
